The origin of these recorded values is the supplement of paper PMC10567573.

Reported protein stability index is given for each of the following variants.
B1: JUNB (parent)
chain: FVKALDDLHKMNHVTPPNVSLGAT

Variants of: B1
TEST_DESCRIPTION: protein stability index of a GFP-peptide fusion (GPS, HEK-293T) (PSI 1-6); higher = more stable;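 note: lentivirally expressed fusions sorted by FACS into six bins by GFP to DsRed ratio, PSI derived from sequencing read proportions per bin multiplied by bin number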
CONDITION_SUMMARY: c terminus: a fixed tail appended
Give the figure by itself; no unit, no explanation.

mutation_descriptor=P16G recorded_value=1.9
mutation_descriptor=T24Q recorded_value=1.83
mutation_descriptor=L21Y recorded_value=1.52
mutation_descriptor=L5E recorded_value=3.33
mutation_descriptor=T15W recorded_value=1.51
mutation_descriptor=M11K recorded_value=1.83
mutation_descriptor=G22P recorded_value=2.15
mutation_descriptor=D6V recorded_value=2.59
mutation_descriptor=H9R recorded_value=1.66
mutation_descriptor=D6T recorded_value=1.88

Per the record, P17Y has protein stability index of 3.73

Per the record, H9E has protein stability index of 2.08

Per the record, L5M has protein stability index of 1.93

Per the record, N12P has protein stability index of 2.08

Per the record, K3Q has protein stability index of 1.94

Per the record, F1Q has protein stability index of 3.52

Per the record, M11L has protein stability index of 1.7

Per the record, K3L has protein stability index of 1.66

Per the record, H9V has protein stability index of 1.79

Per the record, L21M has protein stability index of 2.16

Per the record, K10H has protein stability index of 2.13

Per the record, L5T has protein stability index of 2.22

Per the record, A4Q has protein stability index of 1.94

Per the record, F1Y has protein stability index of 1.54

Per the record, K3W has protein stability index of 2.47

Per the record, K3F has protein stability index of 3.15

Per the record, N12R has protein stability index of 1.56
